Source of measurements: patent US9249116B2

# study-system: procaspase-3 (Homo sapiens, UniProt P42574)
# Construct: 6xHis (C); made in house; host or cells: Rosetta E. coli
# Sequence (P42574 whole entry): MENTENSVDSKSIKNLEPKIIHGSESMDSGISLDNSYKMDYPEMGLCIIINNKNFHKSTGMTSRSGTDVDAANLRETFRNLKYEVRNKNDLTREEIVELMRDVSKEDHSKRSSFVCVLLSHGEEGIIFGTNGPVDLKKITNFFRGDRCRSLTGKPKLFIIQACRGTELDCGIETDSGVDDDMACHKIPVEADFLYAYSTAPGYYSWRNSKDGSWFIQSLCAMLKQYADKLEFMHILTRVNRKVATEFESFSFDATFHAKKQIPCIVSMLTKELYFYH
# test: Procaspase-3 activity assay (relief of zinc-mediated inhibition, Ac-DEVD-pNA cleavage)
# Type: biochemical
# test-settings: procaspase-3 incubated with […] ZnSO4; method gives compounds at 25 μM
# Procaspase-3 (% Activity at […]) annotations
Give the value in % but do not write % after it.

COc1ccc(OC)c(CN2CCN(CC(=O)N/N=C/c3cc(C(C)(C)C)cc(C(C)(C)C)c3O)CC2)c1	64
CC(C)(C)c1cc(/C=N/NC(=O)CN2CCN(Cc3ccc4ccccc4c3)CC2)c(O)c(C(C)(C)C)c1	69

Consider now this further compound.
Give the reported Procaspase-3 (% Activity at […]) for this compound. C=CCc1cccc(/C=N/NC(=O)CN2CCN(Cc3ccc(C(C)(C)C)cc3)CC2)c1O
82

----------
# Test system: U-937 cells (human lymphoma)
# test: 72 Hour IC50 cell death assay (sulforhodamine B)
# Type: cell-based
# test-settings: read-out: U-937 72 h IC50 (μM), Table 1, U-937 cells, 72 h
assay-endpoint: IC50 (µM)
Form entry: value (µM) — number only.

Example results:
C=CCc1cccc(/C=N/NC(=O)CN2CCN(C(=O)c3ccc(F)cc3)CC2)c1O [Compound 7]	10.2
C=CCc1cccc(/C=N/NC(=O)CN2CCN(C(=O)c3ccccc3)CC2)c1O [Compound 3]	12.1
C=CCc1cccc(/C=N/NC(=O)CN2CCN(Cc3ccc(F)cc3)CC2)c1O [Compound 6]	11.1
CCCc1cccc(/C=N/NC(=O)CN2CCN(Cc3ccc(C#N)cc3)CC2)c1O [Compound 13]	9
O=C(CN1CCN(Cc2ccccc2)CC1)N/N=C/c1cc(F)ccc1O [Compound 19]	17

For U-937 cells (human lymphoma), give IC50 of the listed compound: C=CCc1cc(F)cc(/C=N/NC(=O)CN2CCN(Cc3ccc(C#N)cc3)CC2)c1O [Compound 31]
12.7

# assay system U-937 cells (human lymphoma): give IC50 of N#Cc1ccc(CN2CCN(CC(=O)N/N=C/c3cc(F)ccc3O)CC2)cc1 [Compound 22]
13.5

State, for U-937 cells (human lymphoma), measured IC50 of the compound listed here: CCCc1cccc(/C=N/NC(=O)CN2CCN(C(=O)c3ccc(C#N)cc3)CC2)c1O [Compound 14]
12.8
